Reference source: patent US5086071A

# System: gastric acid secretion
# PROTOCOL DETAILS: Gastric Acid Secretion Inhibition (pentagastrin-stimulated, perfused stomach)
# Type: in vivo, rat (male SD rats)
# TEST PARAMETERS: intravenous; pentagastrin 0.05 μg/Kg/min; relative to PGE2 set as 1
MEASUREMENT NAME: Gastric Antisecretory Activity, Relative Potency Ratio [PGE2 = 1.0]

> print(dat)
                                    molecule  reported.measurement
 1  CCOCC(C)(C)[C@H](O)/C=C/[C@@H]1[C@H]2c3cccc(/C=C/C(=O)O)c3O[C@H]2C[C@H]1O                     9
 2  CCCCC(C)[C@H](O)/C=C/[C@@H]1[C@H]2c3cccc(/C=C/C(=O)O)c3O[C@H]2C[C@H]1O (stereo partly shown)                    55
 3  C[C@@H](Oc1ccccc1)[C@H](O)/C=C/[C@@H]1[C@H]2c3cccc(/C=C/C(=O)O)c3O[C@H]2C[C@H]1O                    83
 4  CCCCC[C@H](O)/C=C/[C@@H]1[C@H]2c3cccc(/C=C/C(=O)O)c3O[C@H]2C[C@H]1O                    23
 5  O=C(O)/C=C/c1cccc2c1O[C@H]1C[C@@H](O)[C@H](/C=C/[C@@H](O)C3CCCCC3)[C@@H]21                    14
 6  CC(C)(Oc1ccccc1)[C@H](O)/C=C/[C@@H]1[C@H]2c3cccc(/C=C/C(=O)O)c3O[C@H]2C[C@H]1O                   112
 7  CCCCC(C)(C)[C@H](O)/C=C/[C@@H]1[C@H]2c3cccc(/C=C/C(=O)O)c3O[C@H]2C[C@H]1O                    36
 8  O=C(O)/C=C/c1cccc2c1O[C@H]1C[C@@H](O)[C@H](/C=C/[C@@H](O)COc3ccccc3)[C@@H]21                    73
 9  CCCOC[C@H](O)/C=C/[C@@H]1[C@H]2c3cccc(/C=C/C(=O)O)c3O[C@H]2C[C@H]1O                    10
10  O=C(O)/C=C/c1cccc2c1O[C@H]1C[C@@H](O)[C@H](/C=C/[C@@H](O)c3ccccc3)[C@@H]21                    83
